Recorded CLint scaled at 1 µM values for a group of compounds are listed next.
- METHOD_NOTES: Metabolic stability in human liver microsomes assessed as intrinsic clearance at 1 uM preincubated for 10 mins followed by NADPH addition and further incubated upto 60 mins by LC-MS/MS analysis
- Assay type: ADME, Microsome
- CONDITIONS_USED: time 70 min, read-out: CLH
Give just the numeric value; mL/min/kg need not be written.

Before answering, review these 2 worked examples.
>>> measured_result("CS(=O)(=O)c1cc([N+](=O)[O-])c2sc(N3CCN(CC4CCCCC4)C4(CC4)C3)nc(=O)c2c1")
77
>>> measured_result("O=c1nc(N2CCN(CC3CCCCC3)CC2)sc2c([N+](=O)[O-])cc(C(F)(F)F)cc12 [MACOZINONE]")
28.1

The measured CLint scaled at 1 µM associated with CS(=O)(=O)c1cc([N+](=O)[O-])c2sc(N3CCN(CC4CCCCC4)CC3)nc(=O)c2c1 reads 60.5

The measured CLint scaled at 1 µM associated with CS(=O)(=O)c1cc([N+](=O)[O-])c2sc(N3CCN(CC4CCC(F)(F)CC4)CC3)nc(=O)c2c1 reads 45.1
